# Tested on: PCI-30 (Head and Neck Carcinoma)
# Assay explanation: combination Emax (second highest fraction inhibited in the dose matrix, 72 h); higher = more inhibition; extreme values may be limits of the assay
combination Emax overview
# output: bare number, no unit

// solved cases for combination Emax follow
COc1cccc(OCCCN)c1-c1cc(Nc2cnc(C#N)cn2)n[nH]1 [Prexasertib] + O=C(c1cc(Cc2n[nH]c(=O)c3ccccc23)ccc1F)N1CCN(C(=O)C2CC2)CC1 [Olaparib] (first compound max 1 µM, 7x7, partner max 10 µM)	0.548
C[C@@H]1COCCN1c1cc(C2([S@](C)(=N)=O)CC2)nc(-c2ccnc3[nH]ccc23)n1 [AZD6738] + C1CC(C1)(C(=O)[O-])C(=O)[O-].N.N.[Pt+2] [Carboplatin] (first compound max 10 µM, 7x7, partner max 10 µM)	0.45
Cn1cnc2c(F)c(Nc3ccc(Br)cc3Cl)c(C(=O)NOCCO)cc21 [Selumetinib] + C[C@@H]1COCCN1C2=NC(=NC(=C2)C3(CC3)[S@](=N)(=O)C)C4=C5C=CNC5=NC=C4 [AZD6738] (first compound max 10 µM, 7x7, partner max 10 µM)	0.371
COc1cccc(OCCCN)c1-c1cc(Nc2cnc(C#N)cn2)n[nH]1 [Prexasertib] + CN(C)CCCOc1ccc(-c2ccc3ncc4c(c3c2)n(C2CCOCC2)c(=O)n4C)cn1 [AZD0156] (first compound max 1 µM, 7x7, partner max 1 µM)	0.813
Cc1cc2ncnn2cc1Nc1ncc2c(n1)n(C1CCOCC1)c(=O)n2C [AZD7648] + COc1cc([C@@H]2c3cc4c(cc3[C@@H](O[C@@H]3O[C@@H]5CO[C@@H](C)O[C@H]5[C@H](O)[C@H]3O)[C@H]3COC(=O)[C@H]23)OCO4)cc(OC)c1O [Etoposide] (first compound max 10 µM, 7x7, partner max 10 µM)	0.553
C[C@@H](Oc1cc(-c2cnn(C3CCNCC3)c2)cnc1N)c1c(Cl)ccc(F)c1Cl [Crizotinib] + CC1=C(C(=CC=C1)Cl)NC(=O)C2=CN=C(S2)NC3=CC(=NC(=N3)C)N4CCN(CC4)CCO [Dasatinib] (first compound max 10 µM, 7x7, partner max 2 µM)	0.721

Now look at this one.
## Input Which measured combination Emax belongs to Cc1c2c(nn1C)CSCc1cc(n(C)n1)CSc1cc(c3ccccc3c1)OCCCc1c(C(=O)O)n(C)c3c-2c(Cl)ccc13 [AZD5991] + CC1(C)CCC(CN2CCN(c3ccc(C(=O)NS(=O)(=O)c4ccc(NCC5CCOCC5)c([N+](=O)[O-])c4)c(Oc4cnc5[nH]ccc5c4)c3)CC2)=C(c2ccc(Cl)cc2)C1 [Venetoclax] (first compound max 1 µM, 7x7, partner max 1 µM) , tested on PCI-30 (Head and Neck Carcinoma)?
## Output 0.218

---

# Test system: NCI-H747 (Colorectal Carcinoma)
# Assay explanation: combination Emax (second highest fraction inhibited in the dose matrix, 72 h); higher = more inhibition; extreme values may be limits of the assay
Entries and their combination Emax values follow.
Lab note: jot the number down without any unit.

Consider the worked cases shown below.
CC1(C)CCC(CN2CCN(c3ccc(C(=O)NS(=O)(=O)c4ccc(NCC5CCOCC5)c([N+](=O)[O-])c4)c(Oc4cnc5[nH]ccc5c4)c3)CC2)=C(c2ccc(Cl)cc2)C1 [Venetoclax] + C1CN(CCC1(C(=O)N[C@@H](CCO)C2=CC=C(C=C2)Cl)N)C3=NC=NC4=C3C=CN4 [Capivasertib] (first compound max 1 µM, 7x7, partner max 3 µM)	0.441
CCN(CCO)CCCOc1ccc2c(Nc3cc(CC(=O)Nc4cccc(F)c4)[nH]n3)ncnc2c1 [AZD2811] + O=C(c1cc(Cc2n[nH]c(=O)c3ccccc23)ccc1F)N1CCN(C(=O)C2CC2)CC1 [Olaparib] (first compound max 1 µM, 7x7, partner max 10 µM)	0.232
CCc1c2c(nc3ccc(O)cc13)-c1cc3c(c(=O)n1C2)COC(=O)[C@]3(O)CC [SN-38] + O=C(c1cc(Cc2n[nH]c(=O)c3ccccc23)ccc1F)N1CCN(C(=O)C2CC2)CC1 [Olaparib] (first compound max 0.3 µM, 7x7, partner max 10 µM)	0.542
COc1cccc(OCCCN)c1-c1cc(Nc2cnc(C#N)cn2)n[nH]1 [Prexasertib] + O=C(c1cc(Cc2n[nH]c(=O)c3ccccc23)ccc1F)N1CCN(C(=O)C2CC2)CC1 [Olaparib] (first compound max 1 µM, 7x7, partner max 10 µM)	0.422

## Input Give its combination Emax value. Item: COc1cccc2c1C(=O)c1c(O)c3c(c(O)c1C2=O)C[C@@](O)(C(=O)CO)C[C@@H]3O[C@H]1C[C@H](N)[C@H](O)[C@H](C)O1 [Doxorubicin] + Cc1cc2ncnn2cc1Nc1ncc2c(n1)n(C1CCOCC1)c(=O)n2C [AZD7648] (first compound max 1 µM, 7x7, partner max 10 µM)
## Output 0.743
